Where do the numbers come from? From patent US6162832A.

# STUDY SYSTEM: Na^+ /Ca^2+ Exchange System (Canis lupus familiaris)
# Construct: Sarcolemmal vesicles prepared from the removed dog ventricular muscles; from tissue; host or cells: dog ventricular muscle, sarcolemmal vesicles
# ASSAY TEXT: Inhibitory Action on a Na^+ /Ca^2+ Exchange System using Cardiac Sarcolemmal Vesicles
# Format: biochemical
# CONDITIONS USED: 10 s; 1 μM test drug; dog ventricular sarcolemmal vesicles; 45Ca uptake, 10 seconds; remaining activity vs vehicle-treated group; read-out: Na^+ /Ca^2+ exchange activity (% of control)
Structures can show the parent of a compound that is named as a salt.
The entries below come with measured remaining activity at 1 µM values attached.
READOUT LABEL: remaining activity at 1 µM (%)

• CCOc1ccc(Oc2ccc(OCc3c(F)cccc3F)cc2)c(N)c1 [Compound 7, hydrochloride] = 33
• Nc1ccccc1Oc1ccc(OCc2c(F)cccc2F)cc1 [Compound 5, hydrochloride] = 43
• Nc1ccccc1Oc1ccc(OCc2cccc(F)c2F)cc1 [Compound 3, hydrochloride] = 38
• Nc1ccccc1Oc1ccc(OCc2cc(F)ccc2F)cc1 [Compound 4, hydrochloride] = 27
• CCOc1ccc(Oc2ccc(OCc3cc(F)ccc3F)cc2)c(N)c1 [Compound 6, hydrochloride] = 39
• CCOc1ccc(Oc2ccc(OCc3cccc(F)c3F)cc2)c(N)c1 [Compound 10, hydrochloride] = 45
• Nc1ccccc1Oc1ccc(OCc2ccc(F)cc2F)cc1 [Compound 8, hydrochloride] = 47
